Where these numbers come from: paper PMC4336329

- tested_system: human ether-à-go-go-related gene (hERG) potassium channel (human, UniProt Q12809)
- Sequence (Q12809 whole entry, looked up): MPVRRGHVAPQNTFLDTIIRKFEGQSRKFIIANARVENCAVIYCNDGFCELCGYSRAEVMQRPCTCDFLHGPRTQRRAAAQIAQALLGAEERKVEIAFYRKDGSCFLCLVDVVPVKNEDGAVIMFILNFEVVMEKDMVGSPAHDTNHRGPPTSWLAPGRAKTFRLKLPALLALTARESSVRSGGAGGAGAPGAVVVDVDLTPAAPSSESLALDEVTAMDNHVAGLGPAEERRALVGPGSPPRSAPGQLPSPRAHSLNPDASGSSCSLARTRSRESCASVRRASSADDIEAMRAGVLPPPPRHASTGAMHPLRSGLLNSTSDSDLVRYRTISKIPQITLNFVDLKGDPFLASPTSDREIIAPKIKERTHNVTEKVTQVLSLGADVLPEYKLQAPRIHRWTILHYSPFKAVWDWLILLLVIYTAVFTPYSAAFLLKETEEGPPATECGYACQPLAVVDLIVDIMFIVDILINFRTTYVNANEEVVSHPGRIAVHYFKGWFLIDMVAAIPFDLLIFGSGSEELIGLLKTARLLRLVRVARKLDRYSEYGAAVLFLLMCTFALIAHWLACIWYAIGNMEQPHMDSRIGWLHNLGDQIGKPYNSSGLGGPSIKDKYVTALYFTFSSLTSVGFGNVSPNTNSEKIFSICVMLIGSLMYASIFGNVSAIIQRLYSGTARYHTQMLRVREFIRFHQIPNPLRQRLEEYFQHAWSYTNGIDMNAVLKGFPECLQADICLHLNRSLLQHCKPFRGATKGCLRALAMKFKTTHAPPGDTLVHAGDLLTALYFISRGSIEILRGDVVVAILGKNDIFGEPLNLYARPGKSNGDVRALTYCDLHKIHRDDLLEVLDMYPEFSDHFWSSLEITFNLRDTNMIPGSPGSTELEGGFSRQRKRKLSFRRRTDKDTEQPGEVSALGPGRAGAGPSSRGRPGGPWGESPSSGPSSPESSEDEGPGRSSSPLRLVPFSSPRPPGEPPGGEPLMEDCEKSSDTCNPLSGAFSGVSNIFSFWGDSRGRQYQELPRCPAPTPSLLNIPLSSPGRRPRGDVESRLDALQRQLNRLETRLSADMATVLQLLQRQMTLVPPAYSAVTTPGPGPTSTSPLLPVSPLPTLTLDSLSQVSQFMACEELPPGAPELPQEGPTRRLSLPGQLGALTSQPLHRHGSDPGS
- experiment_description: primary screen, population patch clamp on CHO cells stably expressing hERG; higher = less effect of the substance
The campaign covered roughly 310,000 compounds. About 14,000 (4.5%) showed an effect of 50% or more. The effect is printed as a negative number. Many of the other results were omitted from the sample, so strong results are more common in it than they were.
Label scheme for hERG current change (%, negative = inhibition) at 10uM: lower than -30% is not met, -30% and above is met.

Example cases with answers are listed next.
[[record]]
compound = "CC1CCC(N2CCN(C(=O)COc3ccccc3)CC2)CC1.O=C(O)C(=O)O (centres unmarked)"
class_label = "not met"

[[record]]
compound = "Cc1ccc(OCC(=O)N2CCC(N3CCCCCC3)CC2)cc1"
class_label = "met"


Kindly determine if hERG current change (%, negative = inhibition) at 10uM recorded for `CCc1nnc(NC(=O)CSc2nnc(-c3ccoc3C)n2-c2cccc(C)c2)s1` is above or exactly -30%.
not met

Form field: hERG current change (%, negative = inhibition) at 10uM at least -30%? Entry: `CC(=O)Nc1ccccc1OCCOc1ccc(Br)cc1`
met

Can `COc1ccc(OCCNS(=O)(=O)Cc2ccccc2)cc1` be said to have hERG current change (%, negative = inhibition) at 10uM at or above -30%?
met

API: above_or_equal(metric=hERG current change (%, negative = inhibition) at 10uM, cutoff=-30%) for item COc1ccc(OCC(=O)N2CCN(C3CCC(c4ccccc4)CC3)CC2)cc1 (centres unmarked)
not met

Does the reported hERG current change (%, negative = inhibition) at 10uM for `Cc1ccc2nc(COc3ccc(N(C)S(=O)(=O)c4ccccc4)cc3)cc(=O)n2c1` fall at or above the -30% mark?
not met

Assess whether reported hERG current change (%, negative = inhibition) at 10uM for `O=C(Nc1ccc(Cl)cc1)c1ccc(Br)cc1F` sits at -30% or higher.
met

====

- tested_system: human ether-à-go-go-related gene (hERG) potassium channel (human, UniProt Q12809);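 note: peak tail current of the secondary pulse compared with the same well before compound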
- experiment_description: primary screen, population patch clamp on CHO cells stably expressing hERG; higher = less effect of the substance
Hit rate of the full screen: of about 310,000 compounds, about 14,000 (4.5%) showed an effect of 50% or more. Effects have a minus sign here. Many of the other results were omitted from the sample, so strong results are more common in it than they were.
Readings of hERG current change (%, negative = inhibition) at 10uM for the listed compounds
Return type: number; implicit unit %.

Known results for compounds:
[[record]]
compound = "O=C(NC1CCC(=O)N(CCOc2ccccc2)CC1)OCc1ccccc1 (centres unmarked)"
reported_measurement = -30.2

[[record]]
compound = "Cc1ccc(SC[C@H](C)CN2CC[C@H](NC(=O)OCc3ccccc3)CCC2=O)cc1"
reported_measurement = -41.6

[[record]]
compound = "O=C(NC1CCC(=O)N(CCSc2ccccc2)CC1)OCc1ccccc1 (centres unmarked)"
reported_measurement = -59.2

[[record]]
compound = "N#CC[C@H](Cc1ccccc1)N1CC[C@@H](NC(=O)OCc2ccccc2)CCC1=O"
reported_measurement = -45.1


Requested field: hERG current change (%, negative = inhibition) at 10uM. Item: `COc1ccc(SCCN2CC[C@@H](NC(=O)OCc3ccccc3)CCC2=O)cc1`
-54.4

====

- tested_system: human ether-à-go-go-related gene (hERG) potassium channel (human, UniProt Q12809);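 note: peak tail current of the secondary pulse compared with the same well before compound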
- experiment_description: primary screen, population patch clamp on CHO cells stably expressing hERG; higher = less effect of the substance
Hit rate of the full screen: of about 310,000 compounds, about 14,000 (4.5%) showed an effect of 50% or more. The effect is printed as a negative number. This is one part of a sample in which strong results are shown more often than they occur.
readout_kind: hERG current change (%, negative = inhibition) at 10uM (%)
Report the figure in % without appending any unit label.

// solved cases for hERG current change (%, negative = inhibition) at 10uM follow
[[record]]
molecule = "O=C(CN1CCN(Cc2ccc(Cl)cc2)C1=O)NCCCN1CCN(c2ccc(F)cc2)CC1"
reported_measurement = -81

[[record]]
molecule = "NC(=O)Cn1cc(C(=O)COc2ccccc2)c2ccccc21"
reported_measurement = -3.45

[[record]]
molecule = "COc1ccc(C(=O)C2CCCN(C(=O)Cn3ccc(C)n3)C2)cc1OC (stereo not shown)"
reported_measurement = 19.1

[[record]]
molecule = "COc1ccc(Cl)cc1S(=O)(=O)N1CCCC(C(=O)N2CCOCC2)C1 (stereo not shown)"
reported_measurement = -69.4

[[record]]
molecule = "CC1CN(c2nc3ccccn3c(=O)c2/C=C(\\C#N)C(N)=O)CC(C)O1 (stereo not shown)"
reported_measurement = 21.1

[[record]]
molecule = "Cc1ccc2[nH]c3c(=O)n(CC(=O)NCCCN4CCN(c5ccc(F)cc5)CC4)ncc3c2c1"
reported_measurement = 14.8

[[record]]
molecule = "CCN(CC)S(=O)(=O)c1ccc(Cl)c(NC(=O)COc2ccc3c(C)cc(=O)oc3c2)c1"
reported_measurement = 7.69

[[record]]
molecule = "O=C(c1cc(F)ccc1F)C1CCCN(Cc2cc(Cl)ccc2O)C1 (stereo not shown)"
reported_measurement = 0.916


Which hERG current change (%, negative = inhibition) at 10uM reading was recorded for the molecule `Cc1cccc(CN2CCN(CC(=O)NCc3ccc(F)cc3)C2=O)c1` ?
-13.6

For the molecule `CC1CCN(CCCCOc2ccc([N+](=O)[O-])cc2)CC1` , what hERG current change (%, negative = inhibition) at 10uM is on record?
-74.7

What value of hERG current change (%, negative = inhibition) at 10uM has been recorded for this entry: `Cl.O=C(NCCCn1ccnc1)c1ccc(S(=O)(=O)N2CCOCC2)cc1`
8.09

====

- tested_system: human ether-à-go-go-related gene (hERG) potassium channel (human, UniProt Q12809);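 note: peak tail current of the secondary pulse compared with the same well before compound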
- experiment_description: primary screen, population patch clamp on CHO cells stably expressing hERG; higher = less effect of the substance
- Protocol: Briefly, Chinese hamster ovary (CHO) cells stably expressing the hERG channel were dislodged from tissue culture flasks and dispensed into PPC plates. […] During the recording, background leak currents were estimated by a 100 ms step to -80 mV from an initial holding potential of -70 mV and subtracted from the subsequent current measurement. The campaign was conducted in two phases using slight differences in recording protocol. […]
Screen size: about 310,000 compounds; about 14,000 (4.5%) showed an effect of 50% or more. Effects have a minus sign here. The full list was thinned out, with strong results kept by preference.
readout_kind: hERG current change (%, negative = inhibition) at 10uM

[[record]]
compound = "CC1CN(c2ccc([N+](=O)[O-])cc2F)CCN1C(=O)c1ccco1 (stereo not drawn)"
reported_measurement = "-62%"

[[record]]
compound = "CC(=O)c1ccc(N2CCN(C(=O)c3ccco3)C(C)C2)c(F)c1 (stereo not drawn)"
reported_measurement = "-49.9%"

[[record]]
compound = "N#Cc1cc(NC2CCCC2)c([N+](=O)[O-])cc1C#N"
reported_measurement = "-5.68%"

[[record]]
compound = "CCOC(=O)C1CCCN(C(=O)c2cn(CC)c3ccc(S(=O)(=O)N(C)C)cc3c2=O)C1 (stereo not drawn)"
reported_measurement = "11.9%"

[[record]]
compound = "Cn1ncc2c(NNC(=O)c3ccccc3Cl)ncnc21"
reported_measurement = "10.1%"


Consider the compound `CN(C)c1nc(N)nc(-c2nc3ccccc3s2)n1` and give its measured hERG current change (%, negative = inhibition) at 10uM.
-3.77%

====

- tested_system: human ether-à-go-go-related gene (hERG) potassium channel (human, UniProt Q12809);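 note: peak tail current of the secondary pulse compared with the same well before compound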
- experiment_description: primary screen, population patch clamp on CHO cells stably expressing hERG; higher = less effect of the substance
- Procedure: Briefly, Chinese hamster ovary (CHO) cells stably expressing the hERG channel were dislodged from tissue culture flasks and dispensed into PPC plates. […] During the recording, background leak currents were estimated by a 100 ms step to -80 mV from an initial holding potential of -70 mV and subtracted from the subsequent current measurement. The campaign was conducted in two phases using slight differences in recording protocol. […]
About 14,000 (4.5%) of roughly 310,000 compounds showed an effect of 50% or more. Effects have a minus sign here. What follows is part of a selection rich in strong results, with near analogues and random picks from the rest.
Respond with 1 for hERG current change (%, negative = inhibition) at 10uM values of -30% and above, 0 for values below.

[[record]]
compound = "CCOC(=O)CN(C(=O)Cn1nnc(-c2ccc(C)cc2)n1)C(CC)C(=O)NC1CCCC1 (stereo not drawn)"
class_label = 1

[[record]]
compound = "CCOc1ccc2[nH]c(=O)c(CN(CCO)C(=O)c3ccccc3F)cc2c1"
class_label = 1

[[record]]
compound = "COc1ccc(C(=O)N/C(=C/c2ccc(Cl)cc2)C(=O)Nc2ccc(C(=O)O)cc2)cc1"
class_label = 1

[[record]]
compound = "Cc1ccc(Nc2nc(=O)[nH]nc2C)cc1"
class_label = 1

[[record]]
compound = "C[C@H](NC(=O)N1CCn2c1nc1ccccc12)C(=O)NCc1ccco1"
class_label = 1

[[record]]
compound = "COc1cccc(CNC(=O)Nc2cccs2)c1"
class_label = 1


Exam item: decide whether the reported hERG current change (%, negative = inhibition) at 10uM for COc1ccc(C(=O)N/C(=C\c2ccc(Cl)cc2)C(=O)NCC2CCCO2)cc1 (stereo not drawn) is at least -30%.
0

API: above_or_equal(metric=hERG current change (%, negative = inhibition) at 10uM, cutoff=-30%) for item C=C(C)C1Cc2nc(N)nc(C)c2C1 (stereo not drawn)
1

Given the entry `O=C(OCCN1CCN(C2=NS(=O)(=O)c3ccccc32)CC1)c1ccccc1F` , answer whether its hERG current change (%, negative = inhibition) at 10uM meets or surpasses -30%.
1

Hello, I need to know if CCC(Cc1ccccc1)NC(=O)c1ccc2nc(N3CCOCC3)sc2c1 (stereo not drawn) has measured hERG current change (%, negative = inhibition) at 10uM not below -30%. Thanks!
0

Item COC(=O)Cc1ccc(NC(=S)N2CCCC(C)C2)cc1 (stereo not drawn) with hERG current change (%, negative = inhibition) at 10uM of -30% or above?
1

Would you say `NS(=O)(=O)c1ccc(CNC(=O)CCC2CCCCC2)cc1` shows hERG current change (%, negative = inhibition) at 10uM at minimum -30%?
1

Does `O=C(CN(C(=O)CCC(=O)Nc1ccccn1)c1cccc(F)c1)NCc1ccc(F)cc1` have a reported hERG current change (%, negative = inhibition) at 10uM of at least -30%?
1

Decide: hERG current change (%, negative = inhibition) at 10uM of `CCCCN(CCCNC(=O)c1ccc2nc(N3CCOCC3)sc2c1)Cc1ccccc1` >= -30%?
0

Answer whether hERG current change (%, negative = inhibition) at 10uM of `COc1ccc(CN2CCC(n3nccc3NC(=O)C3CC3)CC2)cc1O` is greater than or equal to -30%.
0

Please check the record `O=C(Nc1ccnn1C1CCN(Cc2cccc(F)c2F)CC1)C1CCCC1` and state if its hERG current change (%, negative = inhibition) at 10uM is at or above -30%.
1
